# Test system: control HeLa cells
# EXPERIMENT_DESCRIPTION: SRB assay of olaparib-induced cytotoxicity
# Assay type: cell-based
# CONDITIONS_USED: Homo sapiens; WT control HeLa cells, sulforhodamine B assay
PROPERTY: IC50 (µM)

{"SMILES_ENTRY": "O=C(c1cc(Cc2n[nH]c(=O)c3ccccc23)ccc1F)N1CCN(C(=O)C2CC2)CC1", "UNIT_TEXT": "µM", "RESULT_NUMBER": 124}

Reference source: patent US20230366033A1
